Assay: Probe fluorescence ratio response to stearic acid relative to ADIFAB2
Format: binding
Conditions: response relative to ADIFAB2
parameter_measured: DR/DR SA

Illustrative cases are given below, each with its answer.
| molecule | DR/DR SA |
| --- | --- |
| 14W 18L 117S 72A (protein, listed as Rattus norvegicus, PEPTIDE (1)...(131) wild-type rat intestinal fatty acid binding protein) AFDGTWKVDRNENWEKFLEKMGINVVKRKLGAHDNLKLTITQEGNKFTVKESSNFRNIDVVFELGVDFAYSAADGTELTGTWTMEGNKLVGKFKRVDNGKELIAVREISGNELIQTSTYEGVEAKRIFKKE | 0.297 |
| 72E 73V 74A (protein, listed as Rattus norvegicus, PEPTIDE (1)...(131) wild-type rat intestinal fatty acid binding protein) AFDGTWKVDRNENYEKFMEKMGINVVKRKLGAHDNLKLTITQEGNKFTVKESSNFRNIDVVFELGVDFAYSEVAGTELTGTWTMEGNKLVGKFKRVDNGKELIAVREISGNELIQTYTYEGVEAKRIFKKE | 0.234 |
| 72A 74N (protein, listed as Rattus norvegicus, PEPTIDE (1)...(131) wild-type rat intestinal fatty acid binding protein) AFDGTWKVDRNENYEKFMEKMGINVVKRKLGAHDNLKLTITQEGNKFTVKESSNFRNIDVVFELGVDFAYSAANGTELTGTWTMEGNKLVGKFKRVDNGKELIAVREISGNELIQTYTYEGVEAKRIFKKE | 1.299 |
| 72H 73P 74L (protein, listed as Rattus norvegicus, PEPTIDE (1)...(131) wild-type rat intestinal fatty acid binding protein) AFDGTWKVDRNENYEKFMEKMGINVVKRKLGAHDNLKLTITQEGNKFTVKESSNFRNIDVVFELGVDFAYSHPLGTELTGTWTMEGNKLVGKFKRVDNGKELIAVREISGNELIQTYTYEGVEAKRIFKKE | 1.474 |
| 72I 73W 74N (protein, listed as Rattus norvegicus, PEPTIDE (1)...(131) wild-type rat intestinal fatty acid binding protein) AFDGTWKVDRNENYEKFMEKMGINVVKRKLGAHDNLKLTITQEGNKFTVKESSNFRNIDVVFELGVDFAYSIWNGTELTGTWTMEGNKLVGKFKRVDNGKELIAVREISGNELIQTYTYEGVEAKRIFKKE | 0.329 |

Briefly, DR/DR SA measured for 72S 73M 74A (protein, listed as Rattus norvegicus, PEPTIDE (1)...(131) wild-type rat intestinal fatty acid binding protein) AFDGTWKVDRNENYEKFMEKMGINVVKRKLGAHDNLKLTITQEGNKFTVKESSNFRNIDVVFELGVDFAYSSMAGTELTGTWTMEGNKLVGKFKRVDNGKELIAVREISGNELIQTYTYEGVEAKRIFKKE : 1.776
